system: A549/ATCC NSCLC; test: NCI-60 one-dose screen, 48 h; conditions: 10 µM unless noted
About 83,000 compounds went through this panel and 20% of them were active in at least one assay; those are over-represented in the sample as a whole. The source made the active and inactive calls. How the source made its calls: active means growth percent below 10; inactive means the rest.
One label from this list, please: active, inactive

Here are 2 molecules together with their reported answers.
{"MOLECULE": "COc1cc(/C=C2\\C(=O)N(c3c(Cl)cccc3Cl)c3ccccc32)cc(OC)c1O", "CLASS_LABEL": "inactive"}
{"MOLECULE": "Cc1nc(NN)c([N+](=O)[O-])c(NN)n1", "CLASS_LABEL": "inactive"}

Each molecule tested received a call. Report the one for O=C(Nc1ccc(Cl)c(Cl)c1)OCn1ncc2ccc([N+](=O)[O-])cc21 .
inactive

Try O=c1oc2ccccc2cc1-c1csc(N=Nc2c(O)[nH]c3ccc(Br)cc23)n1 next.
inactive

====

system: HCC-2998 colon; assay: NCI-60 one-dose screen, 48 h (100 = growth as untreated, 0 = no growth, -100 = all killed); conditions: 10 µM unless noted
This is part of a sample that, as a whole, favours compounds with a hit. Of some 83,000 tested, about 20% had one in any assay. Active and inactive are the calls of the source. The calls were made as follows: active = growth percent below 10; inactive = the rest.
Recorded growth, one value per entry.

Previously resolved entries follow.
{"COMPOUND": "CC1CCCCN1S(=O)(=O)c1ccc(CN=C=S)cc1 (stereo unspecified)", "RECORDED_MEASUREMENT": "103% (inactive)"}
{"COMPOUND": "c1ccc2c(c1)oc1cc3c(cc12)nnc1cccn13", "RECORDED_MEASUREMENT": "110% (inactive)"}
{"COMPOUND": "COc1cccc(Nc2nc(NCCO)c3ccccc3n2)c1", "RECORDED_MEASUREMENT": "87.5% (inactive)"}
{"COMPOUND": "N#Cc1c(O)c2c(c(O)c1C#N)C(=O)c1ccccc1C2=O", "RECORDED_MEASUREMENT": "34.5% (inactive)"}
{"COMPOUND": "CCCCCCCCCCCCSC1=CC(=O)C=CC1=O", "RECORDED_MEASUREMENT": "94.3% (inactive)"}
{"COMPOUND": "CCCCCCCC/C=C\\CCCCCCCCOc1cccc(CC(=O)NCC[N+](C)(C)C)c1", "RECORDED_MEASUREMENT": "66.1% (inactive)"}

# get_value(readout= growth, system= HCC-2998 colon) for CCOC(=O)C1=C(C)N2C(=NC3=C(CCCC/C3=C\c3ccccc3)C2c2ccccc2)S1 (stereo unspecified)
94.9% (inactive)

Try Nc1cccc2c(=S)c3ccccc3[nH]c12 next.
106% (inactive)

Try CC1=CN2C(=NC3=C(CCCC/C3=C\c3ccccc3)C2c2ccccc2)S1 (stereo unspecified) next.
103% (inactive)

Try O=C1/C(=C/c2ccccc2F)CNC/C1=C\c1ccccc1F next.
-89.2% (active)

Try O=C(N/N=C/c1ccc2c(c1)OCO2)c1cnn2c1NC(c1ccccc1)C2 (stereo unspecified) next.
45.3% (inactive)

====

tested on: UACC-257 melanoma; assay: NCI-60 one-dose screen, 48 h (100 = growth as untreated, 0 = no growth, -100 = all killed); conditions: 10 µM unless noted
Compounds without any hit were thinned out: in the full panel of roughly 83,000, 20% have a hit.
OBSERVED_PROPERTY: growth (%)
Only the number, expressed in %, is required.

Previously resolved entries follow.
{"COMPOUND": "COc1cc(-c2nc(SC(C)C)nc(Nc3cccc(C)c3)c2C#N)cc(OC)c1OC", "RECORDED_MEASUREMENT": 98.9}
{"COMPOUND": "Cc1cccc2c(=O)c3c(sc12)c(NCCCN)nc1ccccc13", "RECORDED_MEASUREMENT": 81.9}
{"COMPOUND": "CC(=O)Nc1ccc(S(=O)(=O)N/N=C\\c2ccc(Cl)c(Cl)c2)cc1", "RECORDED_MEASUREMENT": 103}
{"COMPOUND": "Nc1cccc2c(=S)c3ccccc3[nH]c12", "RECORDED_MEASUREMENT": 99}
{"COMPOUND": "Cc1nc2nc(C(F)(F)F)[nH]c2nc1C", "RECORDED_MEASUREMENT": 100}
{"COMPOUND": "CCSc1nnc2c3cc(Br)ccc3n(C)c2n1", "RECORDED_MEASUREMENT": 105}
{"COMPOUND": "CN(C)C(=S)SCN1C(=O)c2ccc([N+](=O)[O-])cc2S1(=O)=O", "RECORDED_MEASUREMENT": 102}
{"COMPOUND": "CCOC(=O)c1[nH]c2cc(Cl)ccc2c1[C@@H](C(=O)NC(C)(C)C)N(CC)C(=O)CCCCC#Cc1cccc2c1CN(C1CCC(=O)NC1=O)C2=O (stereo not given in full)", "RECORDED_MEASUREMENT": 28.4}
{"COMPOUND": "COc1ccc(C(=O)C2=CC(=O)C(=O)C2)cc1OC", "RECORDED_MEASUREMENT": 115}
{"COMPOUND": "CC(C)OC1=C(Cl)C(=O)c2ccccc2C1=O", "RECORDED_MEASUREMENT": 89.6}

Need growth, item COC(=O)c1c2c(c(C)[n+]([O-])c1C)C(=O)C(NCc1ccc(O)cc1)=CC2=O
-62.4

Try COc1cccc(C2CC(=O)Nc3cc4c(cc32)OCO4)c1OC (stereo not given) next.
99.4

Try COc1cc(C2CC(=O)Nc3c2ccc2ccccc32)cc(Br)c1OC (stereo not given) next.
59.7

====

system: MOLT-4 leukemia; experiment: NCI-60 one-dose screen, 48 h (100 = growth as untreated, 0 = no growth, -100 = all killed); conditions: 10 µM unless noted
Compounds without any hit were thinned out: in the full panel of roughly 83,000, 20% have a hit.
Recorded growth, one value per entry.
Only the number, expressed in %, is required.

Previously resolved entries follow.
{"MOLECULE": "COC(=O)[C@@]12CC[C@@H](C)[C@]3(C[C@@H](c4ccoc4)OC3=O)[C@H]1CC[C@@H]1O[C@@]12C", "growth [%]": 110}
{"MOLECULE": "CC(C)NCC(O)COc1ccc(CCOCC2CC2)cc1 (stereo not given)", "growth [%]": 88.3}

Need growth, item COc1cccc(-c2ccc3c(c2)C2CCN(Cc4ccccc4)C3C2)c1 (stereo not given)
68.8

Try CCOC(=O)C1=C(C)N2C(=NC3=C(CCCC/C3=C\c3cc(OC)c(OC)c(OC)c3)C2c2cc(OC)c(OC)c(OC)c2)S1 (stereo not given) next.
45.3

Try CCCOC(=O)c1ccc2c(c1)[N+](=O)C(C(=O)c1ccccc1)=C(C(F)(F)F)[N+]2=O next.
-63.3

Try COc1cccc(Nc2nc(NCCO)c3ccccc3n2)c1 next.
48.1

Try CCCCCCCCCCCCCCNc1nc(CO)ncc1-c1ccc(C(F)(F)F)cc1 next.
99.6

Try COC(=O)c1c2c(c(C)[n+]([O-])c1C)C(=O)C=C(NCc1ccc(Cl)cc1)C2=O next.
-32.2

Try O=C(Nc1ccccc1)Oc1cccc2cccnc12 next.
55.3

Try COc1cc(CNCCN2C(=O)c3ccc4c5c(ccc(c35)C2=O)C(=O)N(CCNCc2cc(OC)c(OC)c(OC)c2)C4=O)cc(OC)c1OC next.
-4.82

====

system: OVCAR-4 ovarian; assay: NCI-60 one-dose screen, 48 h; conditions: 10 µM unless noted
This is part of a sample that, as a whole, favours compounds with a hit. Of some 83,000 tested, about 20% had one in any assay. Calls of active or inactive are those of the source. Rule for the calls: active = growth percent below 10; inactive = the rest.
One label from this list, please: 1 (active), 0 (inactive)

Here are 2 molecules together with their reported answers.
{"MOLECULE": "Cc1nn(CC(=O)O)c2c1C(=O)CC(C)(C)C2", "CLASS_LABEL": 0}
{"MOLECULE": "COc1ccc(/C=N/OCC(O)CN2CCC(O)CC2)cc1OC1CCCC1 (stereo unspecified)", "CLASS_LABEL": 0}

Each molecule tested received a call. Report the one for O=[N+]([O-])c1cc2c(cc1Br)C1C(C3C2C(Cl)(Cl)C(Cl)=C(Cl)C3(Cl)Cl)C(Cl)(Cl)C(Cl)=C(Cl)C1(Cl)Cl (stereo unspecified) .
0

Try COc1ccc(C2=NOC(CC(=O)N(CCO)CCO)C2)cc1OC1CCCC1 (stereo unspecified) next.
0

Try Cc1nc2nc(C(F)(F)F)[nH]c2nc1C next.
0

Try Cn1c(=O)c2c(-c3ccccc3F)n(-c3ccc4c(c3)OCO4)cc2n(C)c1=O next.
0

Try CC1(C)CC(=O)C2=C(C1)Nc1cc3c(cc1C2c1ccc(F)cc1)OCO3 (stereo unspecified) next.
0

Try O=C(N/N=C/c1ccc(F)cc1)c1[nH]c2ccc(I)cc2c1-c1ccccc1 next.
0

Try COc1ccc(C(=O)COc2cccc(/C=C3\CSc4ccc(C)cc4C3=O)c2)cc1 next.
0

Taken from PubChem BioAssay (NCI).
